Dear all, this message contains pKi results, target or system UniProtKB P00918.
Note on pKi: it is the negative log10 of concentration, concentration in mol/L.

Quick one: pKi for COc1cc(OC)c2c(c1Cl)OC1(C(=O)C=C(Nc3ccc(S(N)(=O)=O)cc3)CC1C)C2=O (stereo not drawn) ?
7.19

Please do the same for COc1cc(OC)c2c(c1Cl)O[C@@]1(C(=O)C(=CNCCc3ccc(S(N)(=O)=O)cc3)C(=O)C[C@H]1C)C2=O as well.
7.15

Can you check COc1cc(OC)c2c(c1Cl)OC1(C(=O)C=C(Nc3ccc(S(N)(=O)=O)cc3O)CC1C)C2=O (stereo not drawn) next?
8.31

Would you kindly repeat that for COc1cc(OC)c2c(c1Cl)OC1(C(=O)C=C(NCCS(N)(=O)=O)CC1C)C2=O (stereo not drawn) ?
6.18

What would you report for COc1cc(C(CC(=O)NCCS(N)(=O)=O)C2C(=O)C[C@@H](C)[C@]3(Oc4c(Cl)c(OC)cc(OC)c4C3=O)C2=O)ccc1O (stereo partly drawn) ?
5.39

COc1cc(OC)c2c(c1Cl)O[C@@]1(C(=O)/C(=C\NCc3ccc(S(N)(=O)=O)cc3)C(=O)C[C@H]1C)C2=O ?
6.78

====

target.or.system: UniProtKB Q8DVY1
Sequence (Q8DVY1 1-166): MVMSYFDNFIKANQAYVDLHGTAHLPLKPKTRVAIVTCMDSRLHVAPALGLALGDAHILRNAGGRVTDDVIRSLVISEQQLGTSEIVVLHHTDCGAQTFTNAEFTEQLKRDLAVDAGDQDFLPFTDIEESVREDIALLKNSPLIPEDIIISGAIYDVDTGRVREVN
Each record is given TRUE if its reported Ki is strictly below 900 nM. Records at or above 900 nM are given FALSE.

Strictly below 900 nM in Ki? COc1cc(OC)c2c(c1Cl)O[C@@]1(C(=O)C(=CNCCc3ccc(S(N)(=O)=O)cc3)C(=O)C[C@H]1C)C2=O
FALSE

Param item: COc1cc(C(CC(=O)NCCS(N)(=O)=O)C2C(=O)C[C@@H](C)[C@]3(Oc4c(Cl)c(OC)cc(OC)c4C3=O)C2=O)ccc1O (stereo partly drawn)
FALSE

And then COc1cc(OC)c2c(c1Cl)O[C@]1(C2=O)C(=O)C(C(CC(=O)NCc2ccc(S(N)(=O)=O)cc2)c2ccc(SC)cc2)C(=O)C[C@H]1C (stereo partly drawn) , what is it?
TRUE

Try the compound COc1cc(OC)c2c(c1Cl)OC1(C(=O)C=C(Nc3ccc(S(N)(=O)=O)cc3)CC1C)C2=O (stereo not drawn)
TRUE

Let us now turn to CC(=O)c1c(O)c(C)c(O)c2c1OC1=CC(=O)C(=C(C)Nc3ccc(S(N)(=O)=O)cc3O)C(=O)[C@@]12C
TRUE

====

Hi! I'm sharing some pKi results obtained with MgCA (Malassezia globosa).
Sequence (A8Q1N3 1-241): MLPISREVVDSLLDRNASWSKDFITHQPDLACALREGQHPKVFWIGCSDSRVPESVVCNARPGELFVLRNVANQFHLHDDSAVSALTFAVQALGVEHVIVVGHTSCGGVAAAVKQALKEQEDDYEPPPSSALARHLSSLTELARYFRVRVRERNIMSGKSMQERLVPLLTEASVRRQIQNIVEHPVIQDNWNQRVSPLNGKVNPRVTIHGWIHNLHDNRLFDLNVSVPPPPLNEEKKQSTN
Just so you know, pKi here is -log10 of the concentration in molar units; reply with that number alone.

Form entry - test system: MgCA (Malassezia globosa); read-out: pKi; molecule: COc1cc(OC)c2c(c1Cl)OC1(C(=O)C=C(NCCS(N)(=O)=O)CC1C)C2=O (stereo not shown) [Compound 1a]
6.26

Field entry: COc1cc(OC)c2c(c1Cl)O[C@]1(C2=O)C(=O)C(C(CC(=O)NCC(=O)Nc2ccc(S(N)(=O)=O)cc2)c2ccc(SC)cc2)C(=O)C[C@H]1C (stereo partly shown) [Compound 1j]
5.69

What do you get for CC(=O)c1c(O)c(C)c(O)c2c1OC1=CC(=O)C(=C(C)Nc3ccc(S(N)(=O)=O)cc3O)C(=O)[C@@]12C [Compound 4a] ?
5.46

Continue with COc1cc(OC)c2c(c1Cl)O[C@@]1(C(=O)C(=CNCCc3ccc(S(N)(=O)=O)cc3)C(=O)C[C@H]1C)C2=O [Compound 1f]
5.40
